Just for reference, patent US20180057604A1 is where these values come from.

- target-or-system: T1, cyno TfR extracellular domain (analogous construct to human TfR ecd) (cynomolgus monkey, UniProt Q5RDH6 87-760 (Pongo abelii entry))
- T1 construct: also called cynoTfR ecd
- T1 chain: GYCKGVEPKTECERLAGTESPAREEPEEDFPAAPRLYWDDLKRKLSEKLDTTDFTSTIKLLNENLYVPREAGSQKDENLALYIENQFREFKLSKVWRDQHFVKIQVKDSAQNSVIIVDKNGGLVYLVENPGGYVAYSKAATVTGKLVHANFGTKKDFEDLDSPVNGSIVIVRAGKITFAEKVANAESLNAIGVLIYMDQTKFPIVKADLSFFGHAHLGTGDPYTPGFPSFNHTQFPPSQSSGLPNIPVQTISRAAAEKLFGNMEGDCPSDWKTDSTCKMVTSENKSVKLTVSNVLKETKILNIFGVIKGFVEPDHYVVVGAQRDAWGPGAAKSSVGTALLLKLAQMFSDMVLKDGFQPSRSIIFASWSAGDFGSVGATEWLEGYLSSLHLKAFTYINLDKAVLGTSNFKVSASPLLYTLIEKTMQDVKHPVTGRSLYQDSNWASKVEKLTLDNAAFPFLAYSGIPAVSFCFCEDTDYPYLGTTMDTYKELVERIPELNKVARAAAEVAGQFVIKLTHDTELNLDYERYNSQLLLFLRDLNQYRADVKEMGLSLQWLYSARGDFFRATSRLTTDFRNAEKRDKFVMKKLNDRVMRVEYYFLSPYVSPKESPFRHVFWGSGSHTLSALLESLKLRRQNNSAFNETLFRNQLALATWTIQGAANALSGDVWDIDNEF
- method: SPR, TfR captured by anti-His, Fab injected;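 further: single cycle kinetics with a Fab dilution series, fitted by a one-to-one Langmuir model or a steady state model, KD taken as koff over kon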
Some binders, each annotated with its measured kon.
Use M⁻¹ s⁻¹ as the unit, but write only the number.

### Prompt Param item = Hu7A4.v9.Fab (Fab, V domains shown, Fab) VH: EVQLVQSGAEVKKPGASVKVSCKASGYTFTDYAMHWVRQAPGQGLEWMGGISTYFGRTNYNQKFKGRVTMTRDTSISTAYMELSRLRSDDTAVYYCARGLSGNYVMDYWGQGTTVTVSS VL: DIVMTQSPDSLAVSLGERATINCRASESVDSYGNSFMHWYQQKPGQPPKLLIYRASNLESGVPDRFSGSGSRTDFTLTISSLQAEDVAVYYCQQSNEGPPTFGQGTKLEIK ; retrieve measured kon.
### Response 808000

### Prompt Which kon is reported for this binder? Hu15G11.v1.Fab (Fab, V domains shown, Fab) VH: EVQLVQSGAEVKKPGASVKVSCKASGYTFTSYWMHWVRQAPGQRLEWMGEINPTNGRTNYIEKFKSRVTITRDTSASTAYMELSSLRSEDTAVYYCARGTRAYHYWGQGTMVTVSS VL: DIQMTQSPSSLSASVGDRVTITCRASDNLYSNLAWYQQKPGKAPKLLLYDATNLADGVPSRFSGSGSGTDYTLTISSLQPEDFATYYCQHFWGTPLTFGQGTKVEIK
### Response 505000

### Prompt // lookup kon for Mu16F6.Fab (Fab, V domains shown, Fab; also called mouse 16F6 Fab) VH: DVQLQESGPGLVKPSQSLSLTCTVTGNSITSEYAWNWIRQFPGNKLEWMGYISYSGTTSYNPSLKSRISITRDTSKNQLFLQLNSVTTEDTATYFCARYGYGNPATRYFDVWGAGTTVTVSS VL: DVQITQSPSYLTASPGETITINCRASKSISKYLAWYQEKPGKTNKLLIYSGSTLQSGIPSRFSGSGSGTDFTLTISNLEPEDFAMYYCQQHNEYPWTFGGGTKLEIK
### Response 51100
